Sourced from PubChem BioAssay

Tested on: Inhibin beta A chain (activin A)
assay details: INHBA (activin A) binders on microarrays, primary screen, biochemical, small-molecule microarray, 635 nm fluorescence scan (AID 1107);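 note: mouse activin A protein probed at 4.33 µg/mL on printed slides; score merges bound-protein fluorescence near 667 nm with spot signal-to-noise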
experimental conditions: small-molecule microarray binding, higher = more signal
Below, each entry is listed with its recorded composite z-score.

Some molecules with known composite z-score results, for comparison:
>>> observed_measurement("[N-]=[N+]=Nc1ccccc1[C@H]1OC(c2ccc(OCCCO)cc2)=N[C@@]1(CCS(=O)(=O)c1ccccc1)C(N)=O")
1.26
>>> observed_measurement("CCCCCCc1nc(-c2ccc(OC)nc2)cc2c1[Si](C(C)C)(C(C)C)O[C@H]2c1ccccc1")
0.318
>>> observed_measurement("C=CCC(OC(C)=O)[C@@H]1[C@@H](N(Cc2cc3ccccc3o2)C(=O)c2cccc3ccccc23)c2cc(OCCCO)ccc2N1C(=O)c1ccc(-c2ccccc2)cc1 (some centres undefined)")
0.971
>>> observed_measurement("CC#CC(=O)Oc1ccccc1C=CC(=O)OCC")
0.321
>>> observed_measurement("CCCC[C@@H]1C[C@H]1[C@@H](NC(=O)c1cccs1)c1ccc(-c2ccccc2)cc1")
1.3

Known value: Inhibin beta A chain (activin A) composite z-score of the molecule CN1C(=O)C2C=CC(C(O)c3ccccc3)N(N(c3ccccc3)c3ccccc3)C2C1=O (centres undefined) equals 1.07

Tested system Inhibin beta A chain (activin A); composite z-score recorded for O=C1N(Cc2ccccc2)c2ccccc2[C@@H]2OC(c3ccc(OCCCO)cc3)=N[C@]12CCS(=O)(=O)c1ccccc1 was 1.07

Form: item C=CCNC(=O)[C@@H]1[C@H]2C(=O)O[C@H](c3ccccc3)[C@H](c3ccccc3)N2[C@H](c2ccccc2OCCO)[C@@]12C(=O)N(C(=O)OCCOC)c1ccccc12 ; test system Inhibin beta A chain (activin A); composite z-score: 0.843

O=C1C[C@]2(c3ccc([N+](=O)[O-])cc3)C(=O)N(CC(F)(F)F)c3cc(CO)ccc3[C@H]2N1C1CCCCC1 tested on Inhibin beta A chain (activin A) gave composite z-score: 0.23

Per the reported Inhibin beta A chain (activin A) data, Cc1ccccc1C(O)C1C=CC2C(=O)N(c3ccccc3)C(=O)C2N1Nc1ccc(C(C)C)cc1 (centres undefined) has composite z-score of 0.625

Form field composite z-score for item COC(=O)[C@@]1(CCC(=O)OC(C)(C)C)N=C(c2ccc(OCCCO)cc2)O[C@H]1c1ccccc1N=[N+]=[N-] on Inhibin beta A chain (activin A): 0.431

Form field, composite z-score with Inhibin beta A chain (activin A), item CC(C)C[C@@H]1NC(=O)[C@H](C(C)C)NC(=O)[C@@]23C(=O)N[C@@H](Cc4ccccc4)C2[C@H](C)[C@@]2(C)O[C@H]2C3/C=C/CC/C=C/CNC1=O (some centres undefined) : 1.35

The molecule O=C1C2C=CC(C(O)c3cccc4ccccc34)N(Nc3ccccc3F)C2C(=O)N1c1ccccc1 (centres undefined) , when measured on Inhibin beta A chain (activin A), yielded composite z-score of 0.723

Entry CC1(C)C2C=C(C(O)C3C=CC4C(=O)NC(=O)C4N3Nc3ccc(Cl)cc3Cl)C[C@@H]1C2 (some centres undefined) under Inhibin beta A chain (activin A) had composite z-score of 1.08

Form field composite z-score for item COC(=O)[C@H](Cc1ccccc1)N[C@@H](/C=C/C1CC1)[C@H](O)Cc1ccccc1 on Inhibin beta A chain (activin A): 0.437

Form: item O=C(NCCO)C1=C[C@H](Oc2ccccc2I)[C@@H](O)[C@H](N(Cc2ccco2)C(=O)Cc2ccccc2)C1 ; test system Inhibin beta A chain (activin A); composite z-score: 0.497

Record COCCCNC(=O)[C@@]1(C)c2ccccc2C(=O)N(C(C)C)[C@H]1c1ccc(CO)cc1 has Inhibin beta A chain (activin A) composite z-score equal to 0.531

// returns composite z-score for CC(C)N1C(=O)C[C@@](C(=O)NCC(F)(F)F)(c2ccc([N+](=O)[O-])cc2)[C@H]1c1ccc(CO)cc1 with Inhibin beta A chain (activin A); value = 0.5

Fill in: Inhibin beta A chain (activin A) composite z-score for C=C(C(=O)CC[C@@H](OC(=O)c1cccnc1)c1ccccc1OCCO)C(C)C = 1.34

---

system under test: NADPH oxidase 2 (Homo sapiens)
assay details: NOX2-dependent H2O2 signal modulators, primary screen, NOX inhibitor project, cell-based, HEK293-NOX2, PMA-stimulated, Amplex Red fluorescence (AID 1159); note: test concentration not given here
experimental conditions: 45 min, called active from +8 up or from −8 down
Activity calls are given as the source filed them.
Output constraint: value belongs to YES = active, NO = inactive

A selection of reference data follows.
>>> assigned_label("COc1ccc([C@H]2OC[C@@H]3C[C@@H](Cc4ccccc4)C(=O)N32)cc1")
"NO"
>>> assigned_label("C=CCNC(=O)[C@H]1[C@@H]2C(=O)O[C@@H](c3ccccc3)[C@@H](c3ccccc3)N2[C@@H](c2ccccc2OCCO)[C@]12C(=O)Nc1ccc(C#CCCO)cc12")
"NO"
>>> assigned_label("O=C1C[C@@](C(=O)NCCN2CCOCC2)(c2ccc([N+](=O)[O-])cc2)[C@@H](c2ccc(CO)cc2I)N1CC12CC3CC(CC(C3)C1)C2")
"YES"
>>> assigned_label("C[N+](C)(C)CCCCNC(=O)[C@@H]1C[C@@H]2C(=O)N[C@@H](Cc3ccccc3)C(=O)N2[C@@H]1c1cccc(OCCO)c1")
"NO"
>>> assigned_label("COc1cc2c(cc1OC)CN(C(=O)[C@H]1[C@@H]3C(=O)O[C@@H](c4ccccc4)[C@@H](c4ccccc4)N3[C@@H](c3ccc(O)cc3)[C@]13C(=O)Nc1ccccc13)CC2")
"NO"
>>> assigned_label("O=C1C2C=CC(C(O)c3cccc4ccccc34)N(Nc3ccccc3F)C2C(=O)N1c1ccccc1 (stereo unspecified)")
"NO"
>>> assigned_label("CC(C)C(O)C1C=CC2C(=O)N(c3ccccc3)C(=O)C2N1Nc1ccc([N+](=O)[O-])cc1 (stereo unspecified)")
"NO"
>>> assigned_label("C=CCC(OC(C)=O)[C@@H]1[C@@H](N(Cc2ccc(-c3ccccc3)cc2)C(=O)c2ccc(-c3ccccc3)cc2)c2cc(OCCCO)ccc2N1C(=O)Cc1ccc2ccccc2c1 (stereo partly specified)")
"NO"

Assay outcome for CCCC[C@@H]1C[C@H]1[C@@H](NC(=O)C(C)(C)C)c1ccc(C(F)(F)F)cc1 : what was it?
NO

Short answer needed: outcome of this test for O=C1C2C=CC(C(O)Cc3ccccc3)N(n3cnnc3)C2C(=O)N1Cc1ccccc1 (stereo unspecified) ?
NO

I'd appreciate the recorded outcome for CC(C)C(=C=CC[C@H](O)c1ccc(OCCO)cc1)CCO from this test.
NO

---

system under test: NADPH oxidase 4 (Homo sapiens)
assay details: NOX4-dependent H2O2 signal modulators, primary screen, NOX inhibitor project, cell-based, HEK293-NOX4, tetracycline-induced, Amplex Red fluorescence (AID 1160)
experimental conditions: 45 min, higher = more signal, called active from +8 up or from −8 down
The source made the active and inactive calls.
property label: z-score

>>> observed_measurement("C=CCOC(=O)[C@@H]1[C@H]2C(=O)O[C@H](c3ccccc3)[C@H](c3ccccc3)N2[C@H](c2ccc(OCCOC(=O)[C@@H]3C[C@@H]4C(=O)NCC(=O)N4[C@@H]3c3ccc(O)cc3)cc2)[C@@]12C(=O)Nc1ccc(I)cc12")
"0.978 (inactive)"
>>> observed_measurement("COC(=O)[C@@]1(Cc2ccccc2)N=C(c2ccc(OCCCO)cc2)O[C@H]1c1ccccc1")
"-0.904 (inactive)"
>>> observed_measurement("COCCOC(=O)N1C(=O)[C@@]2(c3cc(C#CCCO)ccc31)[C@H](C(=O)N1CCCCCCC1)[C@H]1C(=O)O[C@H](c3ccccc3)[C@H](c3ccccc3)N1[C@@H]2c1ccc(OCCO)cc1")
"0.94 (inactive)"
>>> observed_measurement("COc1cc2c(cc1OC)CN(C(=O)[C@H]1[C@@H]3C(=O)O[C@@H](c4ccccc4)[C@@H](c4ccccc4)N3[C@@H](c3ccc(O)cc3)[C@]13C(=O)Nc1ccccc13)CC2")
"0.754 (inactive)"

So for CCOC(=O)C1=C[C@@H](C(C)(C)C)N(S(=O)(=O)c2ccc(C)cc2)[C@H]1c1ccc(F)cc1 , the logged z-score turned out to be -0.217 (inactive)

Lab note: measured z-score of COc1ccc(C#Cc2ccc3c(c2)[C@]2(C(=O)N3)[C@H](C(=O)Nc3nc4ccccc4s3)[C@H]3C(=O)O[C@H](c4ccccc4)[C@H](c4ccccc4)N3[C@@H]2c2ccc(O)cc2)cc1 was 0.792 (inactive)

So for CCc1cccc(NC(=O)O[C@H]2[C@H](OC(=O)Nc3ccccc3-c3ccccc3)[C@@H](OC(=O)Nc3ccccc3-c3ccccc3)[C@@H](OC)O[C@@H]2CO)c1 , the logged z-score turned out to be -1.18 (inactive)

Sample COCCOC(=O)N1C(=O)[C@@]2(c3cc(C#CCC(C(=O)OC)C(=O)OC)ccc31)[C@H](c1ccccc1OCCO)N1[C@H](c3ccccc3)[C@H](c3ccccc3)OC(=O)[C@H]1[C@@H]2C(=O)N1CCN(c2ncccn2)CC1 ; z-score observed: 0.656 (inactive)

The reported z-score of the compound CCCCC(CC)C(O)C1C=CC2C(=O)N(Cc3ccccc3)C(=O)C2N1n1cnnc1 (stereo not given) was -0.476 (inactive)

The recorded z-score for entry Cc1ccc(S[C@]2(C(=O)O)CC(=O)N(C(C)C)[C@@H]2c2ccc(CO)cc2I)cc1 equals -2.47 (inactive)
